- ASSAY SYSTEM: T1, CathepsinG, from human neutrophils (human, UniProt P08311 21-244)
- T1 sequence (looked up): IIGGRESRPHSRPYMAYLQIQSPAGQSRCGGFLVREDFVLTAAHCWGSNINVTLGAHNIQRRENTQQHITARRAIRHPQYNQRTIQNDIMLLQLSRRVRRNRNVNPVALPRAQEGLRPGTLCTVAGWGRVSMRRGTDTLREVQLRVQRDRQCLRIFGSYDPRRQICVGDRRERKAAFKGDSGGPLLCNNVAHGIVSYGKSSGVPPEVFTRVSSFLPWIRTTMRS
- EXPERIMENT NOTES: cell-based or functional assay
Bridges are numbered along the chain shown (N, C = ends). [ ]: non-standard residue; d: D form.
EXPERIMENTAL READOUT: IC50 (nmol)
Write the number in nmol without appending the unit.

Below: 4 binders and their reported IC50.
XCTKSDPPICY (HELM PEPTIDE1{[Nle].C.T.K.S.D.P.P.I.C.Y.[dP].P}$PEPTIDE1,PEPTIDE1,2:R3-10:R3|PEPTIDE1,PEPTIDE1,1:R1-13:R2$$$V2.0; SMILES CCCC[C@@H]1NC(=O)[C@@H]2CCCN2C(=O)[C@H]2CCCN2C(=O)[C@H](Cc2ccc(O)cc2)NC(=O)[C@@H]2CSSC[C@H](NC1=O)C(=O)N[C@@H]([C@@H](C)O)C(=O)N[C@@H](CCCCN)C(=O)N[C@@H](CO)C(=O)N[C@@H](CC(=O)O)C(=O)N1CCC[C@H]1C(=O)N1CCC[C@H]1C(=O)N[C@@H]([C@@H](C)CC)C(=O)N2) [Example 44] : 31
XCTKSDPPICN (HELM PEPTIDE1{[Cha].C.T.K.S.D.P.P.I.C.N.[dP].P}$PEPTIDE1,PEPTIDE1,2:R3-10:R3|PEPTIDE1,PEPTIDE1,1:R1-13:R2$$$V2.0; SMILES CC[C@H](C)[C@@H]1NC(=O)[C@@H]2CCCN2C(=O)[C@@H]2CCCN2C(=O)[C@H](CC(=O)O)NC(=O)[C@H](CO)NC(=O)[C@H](CCCCN)NC(=O)[C@H]([C@@H](C)O)NC(=O)[C@@H]2CSSC[C@H](NC1=O)C(=O)N[C@@H](CC(N)=O)C(=O)N1CCC[C@@H]1C(=O)N1CCC[C@H]1C(=O)N[C@@H](CC1CCCCC1)C(=O)N2) [Example 33] : 45
XCTKSDPPICD (HELM PEPTIDE1{[Cha].C.T.K.S.D.P.P.I.C.D.[dP].P}$PEPTIDE1,PEPTIDE1,2:R3-10:R3|PEPTIDE1,PEPTIDE1,1:R1-13:R2$$$V2.0; SMILES CC[C@H](C)[C@@H]1NC(=O)[C@@H]2CCCN2C(=O)[C@@H]2CCCN2C(=O)[C@H](CC(=O)O)NC(=O)[C@H](CO)NC(=O)[C@H](CCCCN)NC(=O)[C@H]([C@@H](C)O)NC(=O)[C@@H]2CSSC[C@H](NC1=O)C(=O)N[C@@H](CC(=O)O)C(=O)N1CCC[C@@H]1C(=O)N1CCC[C@H]1C(=O)N[C@@H](CC1CCCCC1)C(=O)N2) [Example 35] : 54
FCTKSEPPICS (HELM PEPTIDE1{F.C.T.K.S.E.P.P.I.C.S.[dP].P}$PEPTIDE1,PEPTIDE1,2:R3-10:R3|PEPTIDE1,PEPTIDE1,1:R1-13:R2$$$V2.0; SMILES CC[C@H](C)[C@@H]1NC(=O)[C@@H]2CCCN2C(=O)[C@@H]2CCCN2C(=O)[C@H](CCC(=O)O)NC(=O)[C@H](CO)NC(=O)[C@H](CCCCN)NC(=O)[C@H]([C@@H](C)O)NC(=O)[C@@H]2CSSC[C@H](NC1=O)C(=O)N[C@@H](CO)C(=O)N1CCC[C@@H]1C(=O)N1CCC[C@H]1C(=O)N[C@@H](Cc1ccccc1)C(=O)N2) [Example 21] : 97

Moving on to another binder below.
## Input Entry cyclo(ICTKSDPAICR[dP]P) (disulfide 2-10) [Example 52] : reported IC50 = ?
## Output 52
